selectivity ratio for assorted compounds
# test summary: Therapeutic index is the ratio of IC50 to EC50 in H9 lymphocytes
# Format: cell-based
# condition details: human, read-out: TI

Examples with answers:
{"compound": "Cc1c(Cl)c(=O)oc2c3c(ccc12)OC(C)(C)[C@H](OC(=O)C12CCC(C)(C(=O)O1)C2(C)C)[C@@H]3OC(=O)C12CCC(C)(C(=O)O1)C2(C)C (some centres undefined)", "selectivity ratio": 51700}
{"compound": "Cc1cc2c(C)cc3c(c2oc1=O)[C@@H](OC(=O)C12CCC(C)(C(=O)O1)C2(C)C)[C@@H](OC(=O)C12CCC(C)(C(=O)O1)C2(C)C)C(C)(C)O3 (some centres undefined)", "selectivity ratio": "> 16900"}

Next compound, please.
Exercise: Can you look up the measured selectivity ratio of Cc1cc2c(c3oc(=O)cc(C)c13)[C@@H](OC(=O)C13CCC(C)(C(=O)O1)C3(C)C)[C@@H](OC(=O)C13CCC(C)(C(=O)O1)C3(C)C)C(C)(C)O2 (some centres undefined) for me?
Key: > 36800

* * *

# test summary: Therapeutic index is the ratio of IC50 to EC50 in H9 lymphocytes
# Format: cell-based
# condition details: human, read-out: TI
selectivity ratio for assorted compounds

Examples with answers:
{"compound": "COc1cc2c(c3oc(=O)cc(C)c13)[C@@H](OC(=O)C13CCC(C)(C(=O)O1)C3(C)C)[C@@H](OC(=O)C13CCC(C)(C(=O)O1)C3(C)C)C(C)(C)O2 (stereo partly specified)", "reading": "> 2.08e+07"}
{"compound": "Cc1cc(=O)oc2c3c(cc(OCc4ccccc4)c12)OC(C)(C)[C@H](OC(=O)C12CCC(C)(C(=O)O1)C2(C)C)[C@@H]3OC(=O)C12CCC(C)(C(=O)O1)C2(C)C (stereo partly specified)", "reading": 87.7}
{"compound": "Cc1c(-c2ccccc2)c(=O)oc2c3c(ccc12)OC(C)(C)[C@H](OC(=O)C12CCC(C)(C(=O)O1)C2(C)C)[C@@H]3OC(=O)C12CCC(C)(C(=O)O1)C2(C)C (stereo partly specified)", "reading": "> 3.2"}
{"compound": "CC1(C)Oc2ccc3ccc(=O)oc3c2[C@@H](OC(=O)C23CCC(C)(C(=O)O2)C3(C)C)[C@H]1OC(=O)C12CCC(C)(C(=O)O1)C2(C)C (stereo partly specified)", "reading": 137000}

Exercise: Can you look up the measured selectivity ratio of Cc1c(C)c2ccc3c(c2oc1=O)[C@@H](OC(=O)C12CCC(C)(C(=O)O1)C2(C)C)[C@@H](OC(=O)C12CCC(C)(C(=O)O1)C2(C)C)C(C)(C)O3 (stereo partly specified) for me?
Key: > 80200

Exercise: Can you look up the measured selectivity ratio of CC1(C)Oc2ccc3c4c(c(=O)oc3c2[C@@H](OC(=O)C23CCC(C)(C(=O)O2)C3(C)C)[C@H]1OC(=O)C12CCC(C)(C(=O)O1)C2(C)C)CCCC4 (stereo partly specified) for me?
Key: > 69800
